Origin of values: the supplement of paper PMC9112550

Tested on: Escherichia coli TOP10;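 also: peptides expressed intracellularly from a pBAD plasmid library in pooled LB shake-flask culture, induced with 0.3% L-arabinose, DNA abundance read by NGS, three biological replicates, DESeq2 with apeglm shrinkage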
Assay: shrunken log2 fold change of peptide-encoding DNA abundance (4.5 h post-induction vs induction); higher = less antimicrobial activity (less host growth inhibition)
Conditions: time post-induction: 4.5 h; library: site-saturation at positions 5, 18, 19, 20
Measure name: shrunken log2 fold change
Numbers only.

Examples with their reported shrunken log2 fold change follow.
| Sequence input | shrunken log2 fold change |
| --- | --- |
| RRIRFRPPRLPRPRPRPDHRPRP | 0.0119 |
| RRIRCRPPRLPRPRPRPGKTPRP | 0.102 |
| RRIRLRPPRLPRPRPRPIRWPRP | -0.241 |
| RRIRSRPPRLPRPRPRPSFPPRP | -0.557 |

The following sequences each have a reported value; give each one's shrunken log2 fold change.
1. RRIRTRPPRLPRPRPRPPAFPRP
2. RRIRDRPPRLPRPRPRPVLEPRP

Found:
-0.216
0.627

The following sequences each have a reported value; give each one's shrunken log2 fold change.
1. RRIRMRPPRLPRPRPRPSYEPRP
2. RRIRKRPPRLPRPRPRPMSKPRP
3. RRIRVRPPRLPRPRPRPHEFPRP
4. RRIRHRPPRLPRPRPRPRCPPRP
5. RRIRNRPPRLPRPRPRPAGEPRP
6. RRIRKRPPRLPRPRPRPYPQPRP
7. RRIRARPPRLPRPRPRPNEMPRP
8. RRIRLRPPRLPRPRPRPQDDPRP

Found:
1. -0.293
2. 0.388
3. -0.0515
4. 0.169
5. 0.507
6. 0.0235
7. -0.0653
8. -0.224

The following sequences each have a reported value; give each one's shrunken log2 fold change.
1. RRIRCRPPRLPRPRPRPHRVPRP
2. RRIRFRPPRLPRPRPRPVYEPRP
3. RRIRGRPPRLPRPRPRPLNIPRP
4. RRIRIRPPRLPRPRPRPPHKPRP
5. RRIRYRPPRLPRPRPRPLIGPRP
6. RRIRMRPPRLPRPRPRPHPMPRP
7. RRIRERPPRLPRPRPRPDSMPRP
8. RRIRGRPPRLPRPRPRPGNMPRP

Found:
1. 0.135
2. -0.66
3. -0.148
4. -0.0846
5. -0.478
6. 2.74
7. -0.076
8. -0.0382

The following sequences each have a reported value; give each one's shrunken log2 fold change.
1. RRIRMRPPRLPRPRPRPQMKPRP
2. RRIRYRPPRLPRPRPRPPVRPRP
3. RRIRERPPRLPRPRPRPAVAPRP
4. RRIRKRPPRLPRPRPRPTQTPRP
5. RRIRKRPPRLPRPRPRPFMFPRP
6. RRIRIRPPRLPRPRPRPYFFPRP
7. RRIRTRPPRLPRPRPRPYHPPRP

Found:
[0.518, 0.0631, 0.0153, 1.25, -0.0278, -0.875, -0.304]
